Target: T1, Bbc1, P47068
T1 sequence (P47068 1-78, looked up): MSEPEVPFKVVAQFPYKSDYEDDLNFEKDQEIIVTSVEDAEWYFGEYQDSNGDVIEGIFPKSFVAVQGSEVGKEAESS
Experiment: SPOT array
Settings: median of control spots 796
# Lookup of reported SPOT intensity keyed by entry
When you answer, write just the number.

Before answering, review these 2 worked examples.
RLPAPPPPPRRGPAP; 0
PKMLPIPSKPTLFDL; 0

q: What value of measured SPOT intensity is listed for `HVRRSILALPLGVLL` ?
a: 1

q: What value of measured SPOT intensity is listed for `KNRKNLPTIPIRLSG` ?
a: 25

q: What value of measured SPOT intensity is listed for `PKRRAPPPVPKKPSS` ?
a: 354
